conditions: 303.15 K; 101.33 kPa; Liquid; Vibrating tube method
± gives the expanded uncertainty stated by the source.
Collected mass density values appear next to each entry.

CCCO ... 795.48 ± 0.15 kg/m3
CCCCCCCCCCO ... 822.95 ± 0.31 kg/m3
CCCCCCCCO ... 818.24 ± 0.18 kg/m3
CCCCO ... 801.98 ± 0.21 kg/m3
CCCCCCO ... 811.39 ± 0.31 kg/m3
CO ... 781.81 ± 0.16 kg/m3

# query: mass density of entry C[S+](C)[O-] [dimethyl sulfoxide] 1090.45 ± 0.11 kg/m3

Given the entry CCO , report its measured mass density. 780.79 ± 0.16 kg/m3

Origin of values: the NIST ThermoML archive (doi:10.1016/j.tca.2006.10.025)
